// data source = paper PMC9482650

Molecular target: T1, MPDZ_12, O75970
T1 sequence (O75970 1857-1958, limits assumed, looked up): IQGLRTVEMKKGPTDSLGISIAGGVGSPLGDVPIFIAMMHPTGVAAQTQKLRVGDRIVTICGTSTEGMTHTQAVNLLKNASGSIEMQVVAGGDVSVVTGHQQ
Experiment: holdup assay
Set-up: key: below the threshold = too weak to quantify, mostly under pKd 3.1 to 4
Conditions: plain residues with an end cap or a label only (N-terminal biotin on a linker: ado-ado)
parameter: pKd
One number for each entry.

INSERT INTO measurements (binder, observedvalue) VALUES
  ('DRIQSCLSDA [SBF1, O95248]', 3.49);

Summary for this binder, STKRKLASAV [NCF1, P14598] : pKd is 3.52
